Some binders, each annotated with its measured pKd.
measurement target: T1, amino acid residues 26-148 of human ANGPTL4 fused in-line to mouse IgG2a (hANGPTL4-mFc) (human)
T1 construct: contains the N-terminal coiled-coil region
T1 chain: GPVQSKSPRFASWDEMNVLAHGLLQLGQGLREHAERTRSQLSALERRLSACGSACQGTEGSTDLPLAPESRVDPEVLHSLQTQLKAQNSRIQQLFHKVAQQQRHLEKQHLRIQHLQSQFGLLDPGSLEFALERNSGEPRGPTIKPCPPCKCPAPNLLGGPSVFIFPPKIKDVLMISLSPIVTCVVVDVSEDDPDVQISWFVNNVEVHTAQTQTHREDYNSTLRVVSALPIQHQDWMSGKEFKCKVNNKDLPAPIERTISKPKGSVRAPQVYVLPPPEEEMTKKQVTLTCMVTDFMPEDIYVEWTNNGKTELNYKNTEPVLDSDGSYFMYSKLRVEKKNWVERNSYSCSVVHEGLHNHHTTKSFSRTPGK
assay details: SPR (Biacore T100), hANGPTL4-mFc captured by anti-mouse IgG, antibody injected, 25° C.
Reminder that pKd is minus the log10 of a molar concentration.

| binder | pKd |
| --- | --- |
| H1H268P (antibody, V domains shown, also called entire H1H268 mAb; Full mAb) VH: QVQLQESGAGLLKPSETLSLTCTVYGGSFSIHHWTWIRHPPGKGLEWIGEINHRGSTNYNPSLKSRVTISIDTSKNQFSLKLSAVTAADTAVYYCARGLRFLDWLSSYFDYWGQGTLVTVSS VL: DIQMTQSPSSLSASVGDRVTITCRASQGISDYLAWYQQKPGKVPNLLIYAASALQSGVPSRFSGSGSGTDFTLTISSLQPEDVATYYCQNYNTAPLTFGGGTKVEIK | 9.56 |

Summary for this binder, H1H291P (antibody, V domains shown, Fully human antibody, H1H prefix (human IgG1)) VH: EVQLVESGGGLVQPGGSLRLSCAASGFTFSTYDMHWVRQGLGKGLEWVSAIGSAGDTYYPGSVKGRFTISRDNAKSSLFLHMNSLRAGDTALYYCARGDSRNYFVGDYFDYWGQGTLVTVSS VL: DIQMTQSPSTLSASIGDRVTITCRASQSISSWLAWYQQKPGKAPKVLIYKASSLEAGVPSRFSGSGSGTEFTLTISSLQPDDFASYYCQQYSSYSRTFGQGTKVEIK : pKd is 10.06

Value of measured pKd for the entry H1H292P (antibody, V domains shown, Fully human antibody, H1H prefix (human IgG1)) VH: EVQLVESGGGLVQPGGSLRLSCVASGFTFSSYDMHWVRQLPGKGLEWVSAIGVAGDTYYPASVKGRFTISRENAKNSLYLQMNSLRAGDTAVYYCARGDSGNYYDGDYFDFWGQGTLVTVSS VL: DIQMTQSPSTLSASVGDRVTITCRASQSINRWLAWYQQKPGKAPKVLIYKASNLESGVPSRFSGSGSGTEFTLTISSLQPDDFATYYCQQYDSYFRTFGQGTKVEIK : 9.87
